Kindly state IC50 for each of the entries shown.
system: Corticotropin-releasing factor receptor 1 (Rattus norvegicus, UniProt P35353)
Sequence (P35353 whole entry): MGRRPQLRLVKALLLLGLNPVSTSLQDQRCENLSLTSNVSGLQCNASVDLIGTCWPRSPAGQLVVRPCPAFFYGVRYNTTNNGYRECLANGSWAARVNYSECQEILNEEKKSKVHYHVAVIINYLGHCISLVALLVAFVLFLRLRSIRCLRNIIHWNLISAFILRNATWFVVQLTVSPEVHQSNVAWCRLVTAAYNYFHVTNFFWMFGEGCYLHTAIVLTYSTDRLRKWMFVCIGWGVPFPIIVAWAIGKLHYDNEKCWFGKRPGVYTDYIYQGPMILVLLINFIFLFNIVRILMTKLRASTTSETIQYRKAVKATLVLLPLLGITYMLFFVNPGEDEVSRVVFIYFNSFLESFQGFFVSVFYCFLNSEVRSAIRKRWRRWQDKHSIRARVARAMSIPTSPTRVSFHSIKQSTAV
Answers are plain numbers, in nM.

Worked set:
compound | unit-descriptor | IC50
COCCN(CCCF)c1nc(C)nc2c(-c3cnc(OC)nc3)c(C)nn12 | nM | 390
CCN(CCCF)c1nc(C)nc2c(-c3ccc(OC)nc3C)c(C)nn12 | nM | 1.6

Which IC50 is listed for `CCN(CCF)c1nc(C)nc2c(-c3ccc(OC)nc3C)c(C)nn12` ?
5.8

----------
Kindly state logD for each of the entries shown.
experiment-notes: Lipophilicity, log D of the compound in octanol-phosphate buffer at pH 7.4 by Shake flask method
Format: physicochemical
Answers are plain numbers.

Worked set:
compound | measured-value
COc1ccc(-c2c(C)nn3c(N(CCC#N)CCCF)nc(C)nc23)c(C)n1 | 3.5
COCCN(CCF)c1nc(C)nc2c(-c3ccc(OC)nc3C)c(C)nn12 | 4.6

// below: logD requested for another compound
Which logD is listed for `COCCN(CCCF)c1nc(C)nc2c(-c3ccc(OC)nc3)c(C)nn12` ?
3.4

----------
Kindly state logD for each of the entries shown.
experiment-notes: Lipophilicity, log D of the compound in octanol-phosphate buffer at pH 7.4 by Shake flask method
Format: physicochemical
Give bare numbers.

compound | measured-value
COCCN(CCCF)c1nc(C)nc2c(-c3cnc(OC)nc3)c(C)nn12 | 3.2
CCN(CCCF)c1nc(C)nc2c(-c3ccc(OC)nc3C)c(C)nn12 | 4.8
CCN(CCF)c1nc(C)nc2c(-c3ccc(OC)nc3C)c(C)nn12 | 4.5
COCCN(CCCF)c1nc(C)nc2c(-c3cnc(OC)nc3OC)c(C)nn12 | 1.8

// below: logD requested for another compound
Which logD is listed for `COCCN(CCCF)c1nc(C)nc2c(-c3ccc(OC)nc3C)c(C)nn12` ?
4.1
